// provenance: ChEMBL document CHEMBL3507680

test: Human HepG2 cell viability assay in 384 well format; format: toxicity, cell-based; parameters: dose 125 nL, time 70.5 hour; concentration not given beside the values; conditions: HepG2 cells, read-out: Inhibition
Give cytotoxicity at 70.5 h for every item shown.
Answers are plain numbers, in %.

The cases that follow already have their cytotoxicity at 70.5 h on record.
O=S(=O)(c1cccnc1)N1CCCCC1CCN1CCOCC1 (stereo unspecified)
23.1
CCc1cc(-c2ccnc3c2ccn3C)nc(N2CCOCC2)n1
1.11
O=C(N[C@H]1CN(Cc2cccs2)[C@@H]2CCCO[C@H]12)c1cccnc1
-18.4
O=C(c1ccnnc1)N1CC2(CCN(c3ncccn3)C2)C1
-5.07

Below are 3 compounds. Give each one its cytotoxicity at 70.5 h.
1. CCc1nc(CN2CCCN(C(=O)CC(F)(F)F)CC2)cs1
2. COCC(=O)N1CCC(=O)N(C2CCCC2)Cc2cc(F)ccc21
3. COCC1CC2(CCN(Cc3cccnc3)CC2)CN1c1ncccn1 (stereo unspecified)

1.28
-5.37
-0.169

Below are 2 compounds. Give each one its cytotoxicity at 70.5 h.
1. COc1ccc(OCC(=O)NC(C)c2ccc(F)cc2)c(C(=O)O)c1 (stereo unspecified)
2. CN(C)CCN1CCO[C@H]2CN(C(=O)c3ccsc3)C[C@H]21

-7
-6.87

Below are 2 compounds. Give each one its cytotoxicity at 70.5 h.
1. O=C(c1c[nH]c(=O)c(Cl)c1)N1CCc2ccccc2C1
2. CN(C)CCN(Cc1cccc(F)c1)C(=O)c1ccn(C)c(=O)c1

[1.04, -2.08]
